Values were extracted from patent US20240425587A1.

Would you kindly list Kd for each of these binders?
TARGET_ENTITY: T1, human PILRA, c-term His-Avi tag (human, UniProt Q9UKJ1 20-197, limits assumed)
T1 construct: not shown: C-terminal His-Avi tag
ASSAY_SUMMARY: SPR (Biacore), antibody captured, PILRA as analyte
Numbers only, in nM.

Take a look at these entries with their results.
BINDER	Kd [nM]
A12 (antibody, V domains shown, phage campaign) VH: QVQLVQSGAEVKKPGASVKVSCKASGYNFNDYYIHWVRQAPGQGLEWMGWISAYNGNTNYAQKLQGRVTMTRDTSTSTVYMELSSLRSEDTAVYYCARDGWYCSSSSCYTGSDYWGQGTLVTVSS VL: DIQMTQSPSSLSASVGDRVTITCRASQSISNYLNWYQQKPGKAPKLLIYGASTLHSGVPSRFSGSGSGTDFTLTISSLQPEDFATYYCQQSYSTPFTFGPGTKVDIK	19.3
A3 (antibody, V domains shown, phage campaign) VH: EVQLLESGGGLVQPGGSLRLSCAASGFTFSRYEMNWVRQAPGKGLEWVAGISYDGSYEYYADSVKGRFTISRDNSKNTLYLQMNSLRAEDTAVYYCAKGSYGYDAFDIWGQGTMVTVSS VL: DIQMTQSPSSLSASVGDRVTITCRASQSISSWLAWYQQKPGKAPKLLIYATSTLQSGVPSRFSGSGSGTDFTLTISSLQPEDFATYYCQQSYSPPYTFGQGTKVEIK	93.7

Now take the following binder into account.
Kd reading for A11 (antibody, V domains shown, phage campaign; same VH/VL as E17) VH: QVQLVQSGAEVKKPGASVKVSCKASGYTFTSYYMHWVRQAPGQGLEWMGWINPNNGDTNYAQKFQGRVTMTRDTSTSTVYMELSSLRSEDTAVYYCARAGYFDWLLDYYGMDVWGQGTTVTVSS VL: DIVMTQSPLSLPVTPGEPASISCRSSQSLLHSNGYNYLDWYLQKPGQSPQLLIYDASNLETGVPDRFSGSGSGTDFTLKISRVEAEDVGVYYCMQALQTPFGPGTKVDIK : 14.4
